Observed IC50 values for CDK2 (Homo sapiens) are listed in what follows.

COMPOUND	IC50 [µM]
O=C(c1cccc(Nc2nc(OCC3CCCCC3)c3nc[nH]c3n2)c1)N1CCCCC1 [Compound 32]	18
O=C(Nc1ccc(Nc2nc(OCC3CCCCC3)c3nc[nH]c3n2)cc1)c1ccncc1 [Compound 30]	2.2
CN(C)CCNC(=O)Cc1cccc(Nc2nc(OCC3CCCCC3)c3nc[nH]c3n2)c1 [Compound 43]	0.59
CC(C)CCNC(=O)Cc1cccc(Nc2nc(OCC3CCCCC3)c3nc[nH]c3n2)c1 [Compound 44]	3.7
O=C(Cc1cccc(Nc2nc(OCC3CCCCC3)c3nc[nH]c3n2)c1)NCCCO [Compound 40]	0.8
CN(C)CCCNC(=O)Nc1ccc(Nc2nc(OCC3CCCCC3)c3nc[nH]c3n2)cc1 [Compound 18]	0.72
NC(=O)Nc1cccc(Nc2nc(OCC3CCCCC3)c3nc[nH]c3n2)c1 [Compound 31]	0.38
CN(C(=O)Cc1cccc(Nc2nc(OCC3CCCCC3)c3nc[nH]c3n2)c1)C1CCCCC1 [Compound 37]	1.6
